# TGT: HLA-A*24 (human)
# ASSAY_DETAILS: UV peptide exchange ELISA
Property: peptide exchange yield; scope: individual binders

Use these answered entries as a reference point.
{"columns": ["BINDER", "peptide exchange yield"],
 "data": [
  ["KYMKIFHKF", "> 75%"],
  ["QYDPTPLTW", "> 75%"],
  ["NYAIFDEGHML", "> 75%"],
  ["RWMDQRLVF", "> 75%"],
  ["PYTNYTFDF", "> 75%"],
  ["RYLADLPTL", "> 75%"],
  ["RYMKKDYLI", "> 75%"],
  ["LYQEILAQL", "> 75%"],
  ["LIFMLANVF", "10 to 20%"],
  ["TYSKKHFRI", "> 75%"]
]}

// query For the binder SYPELVKMVW , report peptide exchange yield.
// result > 75%

// query # return recorded peptide exchange yield for input KYFVPPQLF
// result > 75%

// query Quick one: give measured peptide exchange yield for RYKQDVERF
// result 50 to 75%

// query Assign peptide exchange yield to the following record: TYNPDFSSL
// result 50 to 75%

// query Tell me its peptide exchange yield given MYINEVERL as the entry.
// result > 75%

// query Consider the binder VMPSDSFFF and give its recorded peptide exchange yield.
// result > 75%

// query Please indicate peptide exchange yield recorded for AYLSAVGTF
// result > 75%

// query State, in one line, measured peptide exchange yield of KQMEDGHTLF
// result 20 to 50%

// query Please give the documented peptide exchange yield of RYEGILYTI
// result > 75%

// query Please look at this binder and report its peptide exchange yield: TQPGDWTLF
// result > 75%

// query Please look at this binder and report its peptide exchange yield: LYISEVRNI
// result > 75%

// query State, in one line, measured peptide exchange yield of KYVKVFDKF
// result > 75%

// query Give me measured peptide exchange yield, please, for this binder: KYKDYFPVI
// result > 75%

// query Identify measured peptide exchange yield corresponding to NYTLYPITF
// result > 75%

// query Output measured peptide exchange yield for this item: SYEVRSTF
// result 50 to 75%

// query Recall and state the measured peptide exchange yield for RWLPQKNAAQF .
// result 50 to 75%
